- TARGET_OR_TEST_SYSTEM: GDP-bound KRAS wild-type protein (Homo sapiens)
- PROTOCOL_DETAILS: Binding to KRAS by surface plasmon resonance (SPR), Single Cycle Kinetics
- ASSAY_CONTEXT: SPR, Single Cycle Kinetics, 1:1 binding model; GDP-bound KRAS wild-type protein; read-out: KRAS KD
ASSAY_READOUT: Kd

Form: compound = CCO[C@@H]1C[C@H]2C(=O)NC3(CCC3)C(=O)N(C)[C@@H](C3CCCC3)C(=O)N(C)[C@H](C(=O)N(C)C)CC(=O)N(C)[C@@H](CC)C(=O)N[C@@H]([C@@H](C)CC)C(=O)N(C)CC(=O)N(C)[C@H]3C/C=C\CCN(C3=O)[C@@H](Cc3ccc(C(F)(F)F)cc3)C(=O)N(C)CC(=O)N[C@@H](CCc3cc(F)c(Cl)c(F)c3)C(=O)N2C1 [PP1262] ; Kd = 0.24 nM

# compound CCO[C@@H]1C[C@H]2C(=O)NC3(CCC3)C(=O)N(C)[C@@H](C(CC)CC)C(=O)N(C)[C@H](C(=O)N3CCOCC3)CC(=O)N(C)[C@@H](CC(C)C)C(=O)N[C@@H]([C@@H](C)CC)C(=O)N(C)CC(=O)N(C)[C@H]3C/C=C\CCN(C3=O)[C@@H](Cc3ccc(C(F)(F)F)cc3)C(=O)N(C)CC(=O)N[C@@H](CCc3cc(F)c(C(F)(F)F)c(F)c3)C(=O)N2C1 [PP1287] ; its Kd = 0.56 nM

Short answer for CC[C@H](C)[C@@H]1NC(=O)[C@H](CC(C)C)N(C)C(=O)C[C@@H](C(=O)N2CCOCC2)N(C)C(=O)[C@H](C2CCCC2)N(C)C(=O)C2(CCC2)NC(=O)[C@@H]2CCCN2C(=O)[C@H](CCc2cc(F)c(C(F)(F)F)c(F)c2)NC(=O)CN(C)C(=O)[C@H](Cc2ccc(C(F)(F)F)cc2)N2C[C@H](C)[C@H](C)C[C@@H](C2=O)N(C)C(=O)[C@@H]2CCN2C1=O [PP1367] : Kd was 0.34 nM

----------
- TARGET_OR_TEST_SYSTEM: GDP-bound KRAS wild-type protein (Homo sapiens, UniProt P01116)
- Sequence (P01116 whole entry): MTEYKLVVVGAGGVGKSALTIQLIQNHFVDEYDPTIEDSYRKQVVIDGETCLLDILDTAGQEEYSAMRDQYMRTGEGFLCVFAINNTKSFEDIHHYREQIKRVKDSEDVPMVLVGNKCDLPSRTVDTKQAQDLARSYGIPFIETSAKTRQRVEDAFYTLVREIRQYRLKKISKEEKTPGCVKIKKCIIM
- PROTOCOL_DETAILS: Binding to KRAS by surface plasmon resonance (SPR), Single Cycle Kinetics
- ASSAY_CONTEXT: SPR Single Cycle Kinetics, GDP-bound KRAS wild-type protein, 1:1 binding model; read-out: KRAS KD
ASSAY_READOUT: Kd (nM)
Express the result in nM but write the number alone.

- C#CC[C@H]1C(=O)N[C@@H]([C@@H](C)CC)C(=O)N(C)CC(=O)N(C)[C@H]2CCCCN(C2=O)[C@@H](Cc2ccc(C(F)(F)F)cc2)C(=O)N(C)CC(=O)N[C@@H](CCc2cc(F)c(C(F)(F)F)c(F)c2)C(=O)N2C[C@H](OCC)C[C@H]2C(=O)NC2(CCC2)C(=O)N(C)[C@@H](C2CCCC2)C(=O)N(C)[C@H](C(=O)N(C)C)CC(=O)N1C [PP0696]: 0.012

As a next step, examine the molecule that follows.
For this molecule ( CC[C@H](C)[C@@H]1NC(=O)[C@H](CC)N(C)C(=O)C[C@@H](C(=O)N(C)C)N(C)C(=O)[C@H](C2CCCC2)N(C)C(=O)C2(CCC2)NC(=O)[C@@H]2C[C@H](N3CCC(F)(F)CC3)CN2C(=O)[C@H](CCc2cc(F)c(C(F)(F)F)c(F)c2)NC(=O)CN(C)C(=O)[C@H](Cc2ccc(C(F)(F)F)cc2)N2CCCC[C@@H](C2=O)N(C)C(=O)CN(C)C1=O [PP0732] ), measured Kd is 0.039

----------
- TARGET_OR_TEST_SYSTEM: GDP-bound KRAS wild-type protein (Homo sapiens)
- PROTOCOL_DETAILS: Binding to KRAS by surface plasmon resonance (SPR), Single Cycle Kinetics
- ASSAY_CONTEXT: SPR, Single Cycle Kinetics, 1:1 binding model; GDP-bound KRAS wild-type protein; read-out: KRAS KD
ASSAY_READOUT: Kd (nM)
Hi! Could you send only the number? It should be in nM, unit omitted.

• CCO[C@@H]1C[C@H]2C(=O)NC(C)(C)C(=O)N(C)[C@@H](C3CCCC3)C(=O)N(C)[C@H](C(=O)N(C)C)CC(=O)N(C)[C@@H](CC)C(=O)N[C@@H]([C@@H](C)CC)C(=O)N(C)CC(=O)N(C)[C@H]3C/C=C\CCN(C3=O)[C@@H](Cc3ccc(C(F)(F)F)cc3)C(=O)N(C)CC(=O)N[C@@H](CCc3cc(F)c(C(F)(F)F)c(F)c3)C(=O)N2C1 = 0.15

Measured Kd of CCO[C@@H]1C[C@H]2C(=O)NC3(CCCC3)C(=O)N(C)[C@@H](C3CCCC3)C(=O)N(C)[C@H](C(=O)N(C)C)CC(=O)N(C)[C@@H](CC(C)C)C(=O)N[C@@H]([C@@H](C)CC)C(=O)N(C)CC(=O)N(C)[C@H]3C/C=C\CCN(C3=O)[C@@H](CC3CCC(F)(F)CC3)C(=O)N(C)CC(=O)N[C@@H](CCc3cc(F)c(C(F)(F)F)c(F)c3)C(=O)N2C1 : 0.2

----------
The entries below come with measured Kd values attached.
- TARGET_OR_TEST_SYSTEM: GDP-bound KRAS wild-type protein (Homo sapiens, UniProt P01116)
- PROTOCOL_DETAILS: Binding to KRAS by surface plasmon resonance (SPR), Single Cycle Kinetics
- ASSAY_CONTEXT: SPR, Single Cycle Kinetics, GDP-bound KRAS wild-type protein; read-out: KRAS KD
Output spec: scalar in pM, unitless text.

Observe how each entry below is paired with its result.
• CC[C@H](C)[C@@H]1NC(=O)[C@H](COC)N(C)C(=O)C[C@@H](C(=O)N2CCOCC2)N(C)C(=O)[C@H](C2CCCC2)N(C)C(=O)C2(CCCC2)NC(=O)[C@@H]2CC(F)(F)CN2C(=O)[C@H](CCc2cc(F)c(C(F)(F)F)c(F)c2)NC(=O)CN(C)C(=O)[C@H](Cc2ccc(C(F)(F)F)cc2)N2CCCCC[C@@H](C2=O)N(C)C(=O)CN(C)C1=O = 990
• CCO[C@@H]1C[C@H]2C(=O)NC3(CCCC3)C(=O)N(C)[C@@H](C3CCCC3)C(=O)N(C)[C@H](C(=O)N(C)C)CC(=O)N(C)[C@@H](CC(C)C)C(=O)N[C@@H]([C@@H](C)CC)C(=O)N(C)CC(=O)N(C)[C@H]3C/C=C\CCN(C3=O)[C@@H](Cc3ccc(C)cc3)C(=O)N(C)CC(=O)N[C@@H](CCc3ccc(C(F)(F)F)c(OC)c3)C(=O)N2C1 = 150

API: the following record is the query input.
Item: CCO[C@@H]1C[C@H]2C(=O)NC3(CCC3)C(=O)N(C)[C@@H](C3CCCC3)C(=O)N(C)[C@H](C(=O)N(C)C)CC(=O)N(C)[C@H]3CCCCCCc4ccc(cc4)C[C@@H](C(=O)N(C)CC(=O)N[C@@H](CCc4ccc(C(F)(F)F)c(OC)c4)C(=O)N2C1)N1CC/C=C\C[C@@H](C1=O)N(C)C(=O)CN(C)C(=O)[C@H]([C@@H](C)CC)NC3=O | Kd: 110

----------
- TARGET_OR_TEST_SYSTEM: GDP-bound KRAS wild-type protein (Homo sapiens)
- PROTOCOL_DETAILS: Binding to KRAS by surface plasmon resonance (SPR), Single Cycle Kinetics
- ASSAY_CONTEXT: SPR, Single Cycle Kinetics, GDP-bound KRAS wild-type protein; read-out: KRAS KD
Some molecules, each annotated with its measured Kd.
Give the figure together with its unit, number first.

Below: 5 molecules and their reported Kd.
- CC[C@H](C)[C@@H]1NC(=O)[C@H](COC)N(C)C(=O)C[C@@H](C(=O)N(C)C)N(C)C(=O)[C@H](C2CCCC2)N(C)C(=O)C2(CC(C)(C)C2)NC(=O)[C@@H]2C[C@@H](OC(C)C)CN2C(=O)[C@H](CCc2cc(F)c(C(F)(F)F)c(F)c2)NC(=O)CN(C)C(=O)[C@H](CC2CCCCC2)N2CC/C=C\C[C@@H](C2=O)N(C)C(=O)CN(C2CC2)C1=O [PP2511]: 0.95 nM
- CC[C@H](C)[C@@H]1NC(=O)[C@H](CC(C)C)N(C)C(=O)C[C@@H](C)N(C)C(=O)[C@H](C2CCCC2)N(C)C(=O)C2(CCCC2)NC(=O)[C@@H]2CCCN2C(=O)[C@H](CCc2cc(F)c(C(F)(F)F)c(F)c2)NC(=O)CN(C)C(=O)[C@H](Cc2ccc(C(F)(F)F)cc2)N2CC/C=C\C[C@@H](C2=O)N(C)C(=O)CN(C)C1=O [PP1102]: 0.95 nM
- CCO[C@@H]1C[C@H]2C(=O)NC3(CCC3)C(=O)N(C)[C@@H](C3CCCC3)C(=O)N[C@H](C)CC(=O)N(C)[C@@H](CC)C(=O)N[C@@H]([C@@H](C)CC)C(=O)N(C)CC(=O)N(C)[C@H]3C/C=C\CCN(C3=O)[C@@H](Cc3ccc(C(F)(F)F)cc3)C(=O)N(C)CC(=O)N[C@@H](CCc3cc(F)c(C(F)(F)F)c(F)c3)C(=O)N2C1 [PP1098]: 0.68 nM
- CCO[C@@H]1C[C@H]2C(=O)NC3(CCC3)C(=O)N(C)[C@@H](C3CCCC3)C(=O)N(C)[C@H](C(=O)N(C)C)CC(=O)N(C)[C@@H](CCOC)C(=O)N[C@@H]([C@@H](C)CC)C(=O)N(C)CC(=O)N(C)[C@H]3CCCCCN(C3=O)[C@@H](Cc3ccc(F)cc3)C(=O)N(C)CC(=O)N[C@@H](CCc3cc(F)c(C(F)(F)F)c(F)c3)C(=O)N2C1 [PP1194]: 0.068 nM
- CC[C@H](C)[C@@H]1NC(=O)[C@H](CC(C)C)N(C)C(=O)C[C@@H](C(=O)N2CCOCC2)N(C)C(=O)[C@H](C2CCCC2)N(C)C(=O)C2(CCC2)NC(=O)[C@@H]2C[C@@H](O)CN2C(=O)[C@H](CCc2cc(F)c(C(F)(F)F)c(F)c2)NC(=O)CN(C)C(=O)[C@H](Cc2ccc(C(F)(F)F)cc2)N2CCCC[C@@H](C2=O)N(C)C(=O)CN(C)C1=O [PP0868]: 0.053 nM

API: the following record is the query input.
Entry under test: CCO[C@@H]1C[C@H]2C(=O)NC3(CC(C)(C)C3)C(=O)N(C)[C@@H](C(CC)CC)C(=O)N(C)[C@H](C(=O)N(C)C)CC(=O)N(C)[C@@H](C(C)C)C(=O)N[C@@H]([C@@H](C)CC)C(=O)N(C)CC(=O)N(C)[C@H]3C/C=C\CCN(C3=O)[C@@H](Cc3ccc(C(F)(F)F)cc3)C(=O)N(C)CC(=O)N[C@@H](CCc3cc(F)c(C(F)(F)F)c(F)c3)C(=O)N2C1 [PP2135] . Its Kd was 0.49 nM
